- Target System: hERG (Homo sapiens, UniProt Q12809)
- Sequence (Q12809 whole entry): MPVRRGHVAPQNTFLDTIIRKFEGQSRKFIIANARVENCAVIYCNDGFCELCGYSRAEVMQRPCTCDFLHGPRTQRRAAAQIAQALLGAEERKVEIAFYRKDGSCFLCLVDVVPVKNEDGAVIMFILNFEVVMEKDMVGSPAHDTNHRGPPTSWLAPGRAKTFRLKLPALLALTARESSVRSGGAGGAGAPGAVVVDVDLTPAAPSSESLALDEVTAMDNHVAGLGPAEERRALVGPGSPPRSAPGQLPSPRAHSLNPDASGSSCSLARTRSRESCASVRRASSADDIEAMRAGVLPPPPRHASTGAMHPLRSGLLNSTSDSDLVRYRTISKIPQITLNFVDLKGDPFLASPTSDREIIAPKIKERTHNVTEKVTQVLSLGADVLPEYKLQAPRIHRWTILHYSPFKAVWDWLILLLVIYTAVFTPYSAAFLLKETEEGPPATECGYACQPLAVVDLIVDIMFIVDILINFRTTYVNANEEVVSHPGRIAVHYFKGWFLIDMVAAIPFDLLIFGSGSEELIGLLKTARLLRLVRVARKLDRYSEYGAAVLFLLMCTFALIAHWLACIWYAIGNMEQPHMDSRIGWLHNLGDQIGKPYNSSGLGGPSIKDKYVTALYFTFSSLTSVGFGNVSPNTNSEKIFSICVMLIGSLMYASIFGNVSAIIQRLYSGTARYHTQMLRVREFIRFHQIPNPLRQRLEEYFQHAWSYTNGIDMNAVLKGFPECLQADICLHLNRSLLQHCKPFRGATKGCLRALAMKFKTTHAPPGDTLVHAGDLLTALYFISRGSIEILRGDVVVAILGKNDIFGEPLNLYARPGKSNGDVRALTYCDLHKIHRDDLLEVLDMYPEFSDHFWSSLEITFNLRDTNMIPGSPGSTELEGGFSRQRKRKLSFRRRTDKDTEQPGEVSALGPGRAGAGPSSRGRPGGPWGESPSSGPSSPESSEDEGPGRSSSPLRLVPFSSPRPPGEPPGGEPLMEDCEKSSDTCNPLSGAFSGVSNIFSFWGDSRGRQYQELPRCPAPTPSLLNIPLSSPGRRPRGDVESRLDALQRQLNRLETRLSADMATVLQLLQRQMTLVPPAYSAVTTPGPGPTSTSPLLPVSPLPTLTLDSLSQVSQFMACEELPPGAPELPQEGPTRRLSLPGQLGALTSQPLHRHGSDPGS
- Measurement Protocol: Patch-clamp hERG assay

| Compound | IC50 / µM |
| --- | --- |
| N#Cc1cccc(-c2ccc3ncc(-c4cc(F)cc(F)c4)c(N4CCC(N)CC4)c3c2)c1O [Compound 22] | 9.9 |
